These measurements were taken from PubChem BioAssay.

- method notes: basal S. cerevisiae growth modulation, no modifier, primary screen, OD600, strain BY4716, 24 h, basal condition (AID 1173)
- protocol conditions: OD600, 24 h, higher = more signal, called active from +8 up or from −8 down
Assign class by z-score: not lower than -0.7 means Yes; lower than -0.7 means No.

Would you please look over these solved cases?
O=C1[C@H]2[C@H]3[C@H](O)[C@H](O)CC(=NO[C@@H]4O[C@H](CO)[C@@H](O)[C@H](O)[C@H]4O)[C@@H]3CC[C@H]2C(=O)N1C[C@@H]1CCCO1 :: No
O=C1C=C[C@@H](O)[C@@H]2[C@@H]3C(=O)N(Cc4ccc5c(c4)OCO5)C(=O)[C@@H]3CC[C@@H]12 :: Yes
COC(=O)[C@@H]1CC[C@H](C)[C@@H](c2ccc(Br)cc2)N1C[C@H](O)CN=[N+]=[N-] :: No
CCOC(=O)[C@H](CC(C)C)NC(=O)CCC1CC(OC(=O)NCc2ccc3c(c2)OCO3)CC2(CCCC(COC(=O)NCCc3ccc(Cl)cc3)O2)O1 (stereo partly drawn) :: No
O=C1C[C@@H](O)[C@@H](O)[C@@H]2[C@@H]3C(=O)N(Cc4ccccc4)C(=O)[C@@H]3CC[C@H]12 :: Yes
CCCC[C@H]1CN2[C@@H](CC[C@@H](C)[C@@H]2c2ccc(Br)cc2)C(=O)O1 :: No

Enquiry: Decide: z-score of C#CCCCON=C1C[C@@H](O)[C@@H](O)[C@@H]2[C@@H]3C(=O)N(C4CCCCC4)C(=O)[C@@H]3CC[C@@H]12 >= -0.7?
Return: No

Enquiry: Reported z-score reaches at least -0.7 for COC(=O)CC=C1c2ccccc2[C@H](OC)[C@H]1C ?
Return: Yes
